Test system: Inhibin beta A chain (activin A)
measurementDescription: INHBA (activin A) binders on microarrays, primary screen, biochemical, small-molecule microarray, 635 nm fluorescence scan (AID 1107);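 note: mouse activin A protein probed at 4.33 µg/mL on printed slides; score merges bound-protein fluorescence near 667 nm with spot signal-to-noise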
testConditions: small-molecule microarray binding, higher = more signal
Label 1 when composite z-score >= 0.2; otherwise -1.

{"compound": "O=C1[C@H]2CCn3c(=O)n(-c4ccccc4)c(=O)n3[C@H]2[C@H](O)[C@@H]2O[C@H]12", "categoryLabel": 1}
{"compound": "CC(=O)OC[C@H]1O[C@H](CC=NOC(C)CN2CCCCc3nc(C)c(C)cc32)C=C[C@@H]1OC(C)=O (stereo not given in full)", "categoryLabel": 1}
{"compound": "CCC1=NOC(CCC2CC(OC(=O)NCc3cccc4c3OCO4)CC3(CCCC(COC(=O)NCCc4ccc(Cl)cc4)O3)O2)C1 (stereo not given)", "categoryLabel": -1}
{"compound": "CCN1C(=O)[C@H]2[C@@H]3C(=CC[C@H]2C1=O)C(=O)[C@H]1O[C@H]1[C@H]3O", "categoryLabel": -1}
{"compound": "O=C1C[C@@H](O)[C@@H](O)[C@@H]2[C@@H]3C(=O)N(C4CCCCC4)C(=O)[C@@H]3CC[C@@H]12", "categoryLabel": -1}
{"compound": "CC(=O)OC[C@H]1O[C@H](CC=NO[C@H](C)c2cn([C@@H]3COC[C@H]3O)nn2)C=C[C@@H]1OC(C)=O", "categoryLabel": 1}
{"compound": "CC(=O)OC[C@H]1O[C@H](CC=NOC[C@@H](O)[C@H]2O[C@@H]3OC(C)(C)O[C@@H]3[C@H]2O)C=C[C@@H]1OC(C)=O", "categoryLabel": -1}
{"compound": "COc1ccc(-c2cnnc(CCCn3ccnc3-c3ccccc3)n2)cc1", "categoryLabel": 1}
{"compound": "CCOC(=O)[C@H](CC(C)C)NC(=O)CCC1CC(OC(=O)NCCc2ccc(F)cc2)CC2(CCCC(COC(=O)NCCOC)O2)O1 (stereo not given in full)", "categoryLabel": -1}
{"compound": "C[C@@H]1CC[C@@H](C(=O)O)N[C@H]1c1cccc(N2CCOCC2)c1", "categoryLabel": -1}
{"compound": "CC(C)CON=C1[C@H]2CCn3c(=O)n(C)c(=O)n3[C@H]2[C@H](O)[C@@H]2O[C@H]12", "categoryLabel": 1}
{"compound": "CCOC(=O)CCN1C(=O)[C@H]2[C@H]3[C@H](O)[C@H](O)CC(=NOCC(C)C)[C@@H]3CC[C@H]2C1=O", "categoryLabel": 1}
{"compound": "CO[C@@H]1C=CCC(=O)N[C@@H](C)C(=O)OC[C@@H](NS(=O)(=O)c2ccc(C)cc2)[C@H](C)C=CCC(=O)OC[C@H]1C", "categoryLabel": 1}
{"compound": "CC(C)=NOC(C)CN1CCCCc2nc(C)c(C)cc21 (stereo not given)", "categoryLabel": 1}
{"compound": "CCOC(=O)CCN1C(=O)[C@H]2[C@H]3[C@H](O)[C@H](O)CC(=NO[C@@H]4O[C@H](CO)[C@@H](O)[C@H](O)[C@H]4O)[C@H]3CC[C@H]2C1=O", "categoryLabel": 1}
{"compound": "COc1cccc([C@H](O)Cn2cc(-c3ccc(CON=C(C)C)cc3)nn2)c1", "categoryLabel": 1}
{"compound": "COC(=O)[C@H](C)NC(=O)CCC1CC(OC(=O)NCCc2ccc(F)cc2)CC2(CCCC(COC(=O)NCc3ccccc3)O2)O1 (stereo not given in full)", "categoryLabel": -1}
{"compound": "O=C1C2=CC[C@H]3C(=O)N(C[C@@H]4CCCO4)C(=O)[C@H]3[C@H]2[C@H](O)[C@@H]2O[C@H]12", "categoryLabel": -1}
{"compound": "CCN1C(=O)[C@H]2[C@H]3[C@H](O)[C@H](O)CC(=NOC[C@@H](O)COCc4ccco4)[C@H]3CC[C@H]2C1=O", "categoryLabel": 1}
